Assay: solvent given as SMILES
Conditions: in CCCCCC
Listed compounds paired with reported emission maximum
Your answer is read as nm, so omit the unit and give the number.

Prompt: # input compound: `Fc1ccc(-c2cc3ccc4cc(-c5ccc(F)cc5)cc5ccc(c2)c3c45)cc1` ; wanted: its emission maximum
Response: 411.8

Prompt: # input compound: `CC1(C)[C@@H]2CC[C@]1(C)c1nc3cc(-c4cccs4)ccc3nc12` ; wanted: its emission maximum
Response: 402

Prompt: # input compound: `Cc1ccc(C)n1-c1ccc(C#N)cc1` ; wanted: its emission maximum
Response: 406

----------
Listed compounds paired with reported emission maximum
Assay: solvent given as SMILES
Conditions: in CC#N
Your answer is read as nm, so omit the unit and give the number.

The following compounds have reported results that may help.
CNc1cccc2c1-c1ccccc1C2=O
638
CN(C)c1ccc(C2=Nc3sc4ccccc4[n+]3[B-](F)(F)O2)cc1
486
COC(=O)c1cc(=O)n(C)c2cc(-c3cc(OC)c(OC)c(OC)c3)sc12
495
COc1ccccc1-c1nc2c([nH]1)C1=CC(=O)S[C@]1(C)[C@@]1(C)SC(=O)C=C21
505
O=C1/C(=C\c2ccc3oc4ccccc4c3c2)S(=O)(=O)c2ccccc21
480
CCCSC1=[N+]2C(=C(c3ccccc3)c3ccc(SCCC)n3[B-]2(F)F)C=C1SC#N
584
Cc1c(C2=[N+]3C(=Cc4c(C)c5ccccc5n4[B-]3(F)F)c3ccccc32)[nH]c2ccccc12
637
O=S(=O)(c1ccc(-c2ccc(-c3nc4c5ccccc5c5ccccc5c4n3-c3ccccc3)cc2)cc1)c1ccc(-c2ccc(-c3nc4c5ccccc5c5ccccc5c4n3-c3ccccc3)cc2)cc1
479
CN(C)c1cccc2c1C(=O)c1ccccc1C2=O
593
Cc1cc2c(o1)c(C)cc1ccc(=O)oc12
435

Prompt: # input compound: `COc1cc(/C=C/c2ccccc2)cc(OC)c1` ; wanted: its emission maximum
Response: 390

Prompt: # input compound: CC1(C)Oc2c(c3nc4ccccc4nc3c3ccccc23)CC1Br (stereo unspecified) ; wanted: its emission maximum
Response: 457.04

Prompt: # input compound: OC1(c2ccc(-c3cccs3)s2)CCC(c2ccccc2)CC1 (stereo unspecified) ; wanted: its emission maximum
Response: 468

Prompt: # input compound: `CCCCN1C(=O)C(=C/C=C/C=C/C=C2N(CCCC)c3ccccc3N2CCCC)C(=O)N(CCCC)C1=S` ; wanted: its emission maximum
Response: 688

Prompt: # input compound: `CNc1ccc(/C=C/C#N)cc1` ; wanted: its emission maximum
Response: 421

Prompt: # input compound: `O=C(O)c1ccc2ccc3cccc4ccc1c2c34` ; wanted: its emission maximum
Response: 389
